target: T1, ANTIBODY EXPRESSION CONTROL; assay: SPR Biacore, expression control
T1 construct: also called mouse anti-canine antibody (capture reagent of the expression control ELISA)
Measured koff, listed per entry for reference.
Respond numerically; units are s⁻¹ and should not be typed.

Recorded koff, per entry:
[[record]]
binder = "Mu_19F07_VH (SEQ ID NO: 47)_Y59A (antibody, V domains shown) VH: EVKLVESEGGLVQPGSSMKLSCTASGFTFSDYYMAWVRQVPEKGLEWVANINYDGSSTAYLDSLKSRFIISRDNAKNILYLQMSSLKSEDTATYYCARGLTWDFDVWGTGTTVTVSS VL: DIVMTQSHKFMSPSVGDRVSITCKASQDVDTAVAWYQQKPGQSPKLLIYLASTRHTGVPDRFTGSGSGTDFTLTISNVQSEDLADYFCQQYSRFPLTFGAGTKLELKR"
metric = "koff"
result_number = 0.000116

[[record]]
binder = "mouse: canine 10F07 chimera (antibody, V domains shown, Mouse variable domains on canine IgG constant regions; also called 10F07 (Mouse:Canine); mouse:dog chimera 10F07) VH: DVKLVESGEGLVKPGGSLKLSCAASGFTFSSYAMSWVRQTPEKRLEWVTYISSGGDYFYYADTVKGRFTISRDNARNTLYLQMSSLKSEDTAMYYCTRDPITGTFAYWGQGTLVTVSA VL: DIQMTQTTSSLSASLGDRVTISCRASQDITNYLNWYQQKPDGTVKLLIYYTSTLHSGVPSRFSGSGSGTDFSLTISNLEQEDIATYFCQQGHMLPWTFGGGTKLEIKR"
metric = "koff"
result_number = "8.27e-05"


For record Mu_09E09_VL (SEQ ID NO: 37)_N92A (antibody, V domains shown) VH: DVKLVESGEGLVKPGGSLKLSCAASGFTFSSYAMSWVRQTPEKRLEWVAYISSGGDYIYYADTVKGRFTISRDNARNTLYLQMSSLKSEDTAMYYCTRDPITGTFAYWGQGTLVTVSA VL: DLQMTQTTSSLSASLGDRVTISCRASQDINNYLNWYQQKPDGTVKLLIYYTSTLHSGVPSRFSGSGSGTDYSLTISNLEQEDIATYFCQQGATLPWTFGGGTKLEIKR the listed koff is 7.59e-05

The recorded koff for entry Mu_02D09_VH (SEQ ID NO: 31)_H35A (antibody, V domains shown) VH: EVQLVESGGGLVKPGGSLTLSCAASGFTFSDYGMAWLRQAPEKGLEWVAYISSGSRAVFFADTVKGRFTISRDNAKNTLFLQMTSLRSDDTAMYYCARDRYDGRGFAYWGQGTLVTVSA VL: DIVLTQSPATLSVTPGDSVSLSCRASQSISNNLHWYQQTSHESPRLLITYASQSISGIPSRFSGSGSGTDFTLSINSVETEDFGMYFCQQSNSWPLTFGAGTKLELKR equals 0.000112

# koff (binder: Mu_09E09_VH (SEQ ID NO: 35)_P100A (antibody, V domains shown) VH: DVKLVESGEGLVKPGGSLKLSCAASGFTFSSYAMSWVRQTPEKRLEWVAYISSGGDYIYYADTVKGRFTISRDNARNTLYLQMSSLKSEDTAMYYCTRDAITGTFAYWGQGTLVTVSA VL: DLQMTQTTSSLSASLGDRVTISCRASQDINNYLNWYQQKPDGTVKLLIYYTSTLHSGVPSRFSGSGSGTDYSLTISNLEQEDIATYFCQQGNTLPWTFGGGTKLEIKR ) is 2.35e-05

The binder listed as Mu_02D09_VL (SEQ ID NO: 33)_L96A (antibody, V domains shown) VH: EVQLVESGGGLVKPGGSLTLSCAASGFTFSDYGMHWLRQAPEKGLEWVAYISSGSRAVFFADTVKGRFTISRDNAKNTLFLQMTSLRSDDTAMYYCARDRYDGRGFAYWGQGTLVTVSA VL: DIVLTQSPATLSVTPGDSVSLSCRASQSISNNLHWYQQTSHESPRLLITYASQSISGIPSRFSGSGSGTDFTLSINSVETEDFGMYFCQQSNSWPATFGAGTKLELKR shows koff equal to 2.43e-05

Reported koff ( mouse: canine 19F07 chimera (antibody, V domains shown, Mouse variable domains on canine IgG constant regions; also called 19F07 (Mouse:Canine); mouse:dog chimera 19F07) VH: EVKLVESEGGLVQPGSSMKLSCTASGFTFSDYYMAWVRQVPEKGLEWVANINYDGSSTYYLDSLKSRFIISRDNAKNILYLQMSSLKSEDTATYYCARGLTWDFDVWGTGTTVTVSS VL: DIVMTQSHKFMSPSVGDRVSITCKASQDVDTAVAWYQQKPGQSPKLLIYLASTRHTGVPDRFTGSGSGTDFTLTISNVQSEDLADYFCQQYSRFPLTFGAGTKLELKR ) = 2.29e-05
